Test system: Hs-578T
assay-protocol: NCI tumour cell line growth inhibition, 48 h
Calls of active or inactive are those of the source. Rule as the data show it: active = GI50 up to about 1.1 µM and inactive = higher.
value-type: GI50

Below, each entry is followed by its recorded GI50 result.
Cn1cco/c1=N/c1ccc(Cl)c(Cl)c1; > 10 µM (inactive)
CNC1C(O)C(OC2C(N)CC(N)C(OC3OC(CN)=CCC3N)C2O)OCC1(C)O (centres undefined); > 100 µM (inactive)
CCCCCN(CCCCC)CC(C)(C)C(O)c1ccc(OC)c2ccccc12 (centres undefined); 16.6 µM (inactive)
CCOC(=O)c1c(C)noc1/N=N/N(CCO)CCO; 63.4 µM (inactive)
CC/C(Cl)=N\OC(=O)Nc1ccccc1OC(F)(F)F; 30.2 µM (inactive)
CSC(SC)(C(=O)O)c1cc(-c2c(Cl)cccc2Cl)no1; 39.2 µM (inactive)

Summary for this compound, `COc1ccc(Oc2cccc(/C=C3/C(=O)Nc4ccccc43)c2)cc1` : GI50 is 15.4 µM (inactive)

Sample `CCN(CC)C1=Nc2ccccc2-n2ccnc2C1` ; GI50 observed: > 100 µM (inactive)

Documented GI50 of `N[C@@H]1CCN(c2c(F)cc3c(=O)c(C(=O)O)cn4c3c2Oc2c-4ccc3c2ccc2ccccc23)C1` : 10.8 µM (inactive)

----------
Test system: SK-MEL-28
assay-protocol: NCI tumour cell line growth inhibition, 48 h
Calls of active or inactive are those of the source. Rule as the data show it: active = GI50 up to about 1.1 µM and inactive = higher.
Would you mind answering with one of these outcomes? yes (1) (active), no (0) (inactive)

CC1(C)CC2(C)CC1CC2(O)c1ccccc1 (centres undefined); no (0)
CC(C)=CCC/C(C)=C/CC/C(C)=C/C1CCC(=O)C1(C)C (centres undefined); no (0)
Cn1ccnc1Sc1ccc(/C=N\NC(=O)c2cccc(F)c2)cc1[N+](=O)[O-]; no (0)

Turning now to a further molecule:
Record lookup: outcome of this test for COc1cc(OCCN(C)C)c2[nH]c(C(=O)N3CC(CCl)c4c3cc(N)c3ccccc43)cc2c1 (centres undefined) ?
yes (1)

----------
System: T47D
assay-protocol: NCI tumour cell line growth inhibition, 48 h
Calls of active or inactive are those of the source. Cut-off read from the data, not from the text of the source: active = GI50 up to about 1.1 µM and inactive = higher.
As shown below, each of these compounds has a reported GI50 value.

Reported GI50 ( `Cc1n[nH]c(=O)n1N1C(=O)CCCC1=O` ) = > 100 µM (inactive)

Short answer for `Cc1nc(N)c(N2CCN(S(N)(=O)=O)CC2)c(O)n1` : GI50 was > 100 µM (inactive)

Record CO[C@@H]1[C@@H](OC2OC(C)C(OC3CC(C)(O)C(OC(=O)CC(C)C)C(C)O3)C(N(C)C)C2O)[C@@H](CC=O)C[C@@H](C)C(=O)/C=C/C2O[C@H]2C[C@@H](C)OC(=O)C[C@H]1OC(C)=O (stereo partly drawn) . Reported GI50: 18.7 µM (inactive)

----------
System: SF-539
assay-protocol: NCI tumour cell line growth inhibition, 48 h
Activity calls are given as the source filed them. Cut-off read from the data, not from the text of the source: active = GI50 up to about 1.1 µM and inactive = higher.
value-type: GI50

Below, 2 compounds whose answers are already recorded.
CCN1C(=O)C(N=[N+]=[N-])(c2ccccc2)C(=O)c2ccccc21 (centres undefined); > 100 µM (inactive)
Cc1cc(S(=O)(=O)O)c(NC(=O)C(=O)Cc2cc(=O)oc3cc(O)ccc23)cc1Cl; > 100 µM (inactive)

Memo: `COc1ccc(/C(Cl)=C(\CNc2ccccn2)c2ccccc2)cc1OC` , reported GI50: > 100 µM (inactive)

So, `CN1CCC(n2[nH]c(-c3ccccc3)c(Cc3ccccc3)c2=O)CC1` ? Its GI50 was 57.1 µM (inactive)

----------
Test system: OVCAR-5
assay-protocol: NCI tumour cell line growth inhibition, 48 h
Active and inactive are the calls of the source. No stated cut-off is given here; in the data, active = GI50 up to about 1.1 µM and inactive = higher.
value-type: GI50

So the reported GI50 for `CCCCCC(=O)OC[n+]1cccc(-c2c(COC(=O)NC(C)C)c(COC(=O)NC(C)C)c3n2CCC3)c1` , on OVCAR-5, turned out to be > 63.5 µM (inactive)

Lab note: compound `[N-]=[N+]=CC(=O)c1ccccc1C#CCCc1ccccc1` tested on OVCAR-5; recorded GI50 was 50.5 µM (inactive)

Noted GI50 for `C=CCn1c(=O)c(-c2ccccc2)c(O)c2ccccc21` , tested on OVCAR-5: > 100 µM (inactive)

Item `O=C(c1ccccc1)n1cc(/C=C/[N+](=O)[O-])c2ccccc21` was tested on OVCAR-5; the reported GI50 is > 100 µM (inactive)

The value of GI50 recorded for CC1(C)OCC2OC3([C@H](O)CCO)OC(C)(C)OC3C2O1 (some centres not stated) when tested on OVCAR-5 reads > 100 µM (inactive)

# GI50 measured on OVCAR-5 for item CC(CN1NC12CCCC2)N1NC12CCCC2 (configuration not stated) = > 100 µM (inactive)

Reading of GI50 for `Cn1ccnc1Sc1ccc(/C=N\NC(=O)c2cccc(F)c2)cc1[N+](=O)[O-]` with OVCAR-5: > 100 µM (inactive)

----------
System: SW-620
assay-protocol: NCI tumour cell line growth inhibition, 48 h
Activity calls are given as the source filed them. Rule as the data show it: active = GI50 up to about 1.1 µM and inactive = higher.
Your answer must be one of the following: active, inactive

O=C(NNc1nc(-c2ccccc2)cs1)C(F)(F)F; inactive
CCOC(=O)[C@H]1Nc2c(cccc2[N+](=O)[O-])C2c3ccccc3CC21 (stereo partly drawn); inactive
CCCCC(C)C1CCC2(C)C=CC(=O)C(C)=C2C1O (stereo not drawn); inactive
CCC(=O)NCCc1c[nH]c2ccc(OC)cc12; inactive

// outcome(item) with item = `C#CCN(CC#C)C(=O)C(=O)c1c[nH]c2ccc(OC)cc12`
inactive

# lookup: test call for `NC12CC3CC(C1)CC(C(=O)O)(C3)C2`
inactive

Recorded call for O=C1C2=C(c3ccccc31)C(c1ccc(Cl)cc1)NC(S)=N2 (stereo not drawn) ?
inactive

Dear all, I need the recorded test outcome for `Cc1ccc(S(=O)(=O)N2CCCN(S(=O)(=O)c3ccc(C)cc3)CCN(S(=O)(=O)c3ccc(C)cc3)CCCSCC2)cc1` , thank you.
inactive

----------
Test system: NCI-H226
assay-protocol: NCI tumour cell line growth inhibition, 48 h
Activity calls are given as the source filed them. No stated cut-off is given here; in the data, active = GI50 up to about 1.1 µM and inactive = higher.
Each entry below carries its reported GI50.

Below, 4 molecules whose answers are already recorded.
C/C=C(C)/C=C/CC(C)CCC=C(C)C (stereo not given); > 100 µM (inactive)
Cn1c(=O)c2c(nc3n(Cc4ccccc4)c(=O)c(Br)cn23)n(C)c1=O; > 100 µM (inactive)
Cn1cco/c1=N/c1ccc(Cl)c(Cl)c1; > 10 µM (inactive)
COc1ccc2c(c1)C(=O)C1CCC(=O)N1C2c1ccc2c(c1)OCO2 (stereo not given); 15.7 µM (inactive)

Alright, here's another molecule for you.
Form field GI50, entry `CN(C)c1ccc(/N=C2/NC(=N\c3ccccc3)/C(=N/c3ccccc3)S2)cc1` : > 100 µM (inactive)

----------
Tested on: T47D
assay-protocol: NCI tumour cell line growth inhibition, 48 h
Calls of active or inactive are those of the source. Cut-off read from the data, not from the text of the source: active = GI50 up to about 1.1 µM and inactive = higher.
Below is a list of entries, each paired with its recorded GI50 value.

CC(=O)NC1C(OCc2ccccc2)OC(CO)C(O)C1OCC(=O)N1CCCC1C(=O)N[C@@H](CCC(=O)NCCCCNc1c2ccccc2nc2cccc([N+](=O)[O-])c12)C(N)=O (stereo partly specified) has a reported GI50 of 27.4 µM (inactive)

Entry `CN(NC(=O)/C(=C/c1ccc(O)cc1)NC(=O)c1ccccc1)c1ccnc2cc(Cl)ccc12` — recorded GI50 = 20.5 µM (inactive)

----------
System: LOX IMVI
assay-protocol: NCI tumour cell line growth inhibition, 48 h
Active and inactive are the calls of the source. Rule as the data show it: active = GI50 up to about 1.1 µM and inactive = higher.
value-type: GI50

Oc1ccc2ccccc2c1/C=N/Cc1c(O)ccc2ccccc12; 48.1 µM (inactive)
CC(CN1NC12CCCC2)N1NC12CCCC2 (centres undefined); > 100 µM (inactive)
CC(=O)OCCn1c(Cc2ccc([N+](=O)[O-])cc2)nn(C(C)=O)c1=O; > 100 µM (inactive)
Cc1cccc2c1Sc1ccccc1C2NC(=O)CCN(C)C (centres undefined); > 100 µM (inactive)
C/C(=N\N=C1/C(=O)OC(c2ccccc2)=C1C(=O)c1ccccc1)c1ccc([N+](=O)[O-])cc1; 34.8 µM (inactive)

Entry `NNC(=S)N/N=C(/C(=O)Nc1ccc([N+](=O)[O-])cc1)c1nc2ccc([N+](=O)[O-])cc2nc1O` , GI50 reported as > 100 µM (inactive)

For `Clc1ccc(NCc2nnc(COc3ccc(OCc4nnc(CNc5ccc(Cl)cc5)o4)c(Cl)c3)o2)cc1` the compound record lists GI50 as 20.3 µM (inactive)

Record Cc1ccc(NC(=O)CCC(=O)C2Cc3ccccc3C2=O)cc1C (centres undefined) . Reported GI50: > 100 µM (inactive)

----------
System: SF-539
assay-protocol: NCI tumour cell line growth inhibition, 48 h
Activity calls are given as the source filed them. No stated cut-off is given here; in the data, active = GI50 up to about 1.1 µM and inactive = higher.
// GI50 lookup, one value per entry

Illustrative cases are given below, each with its answer.
Cc1c(NC(=O)CSC(=S)N(C)C)c(=O)n(-c2ccccc2)n1C; > 100 µM (inactive)
Cc1cccc2c1Sc1ccccc1C2NC(=O)CCN(C)C (stereo unspecified); > 100 µM (inactive)
O=[N+]([O-])c1ccc(N2N=C(c3c(O)ccc4ccccc34)CC2c2ccc(Cl)cc2)c([N+](=O)[O-])c1 (stereo unspecified); 30.1 µM (inactive)
C[C@]12CCc3nn(-c4ccccc4)nc3C1CC[C@@H]1C2CC[C@]2(C)C(=O)CCC12 (stereo partly specified); > 100 µM (inactive)
O=C(c1ccccc1)C1C(C(=O)c2ccccc2)C(c2ccccc2)N(c2ccccc2)C1c1ccccc1 (stereo unspecified); > 100 µM (inactive)

Proceeding to the next molecule to report its GI50.
For reference, reported GI50 for `COc1ccc(Cc2coc3ccccc3c2=O)cc1OC` stands at 42.8 µM (inactive)
